The reported numbers originate from patent US5919901.

# subject.of.test: T1, Rat Y4/PP1 (clone) (rat), Q63447
# T1 chain: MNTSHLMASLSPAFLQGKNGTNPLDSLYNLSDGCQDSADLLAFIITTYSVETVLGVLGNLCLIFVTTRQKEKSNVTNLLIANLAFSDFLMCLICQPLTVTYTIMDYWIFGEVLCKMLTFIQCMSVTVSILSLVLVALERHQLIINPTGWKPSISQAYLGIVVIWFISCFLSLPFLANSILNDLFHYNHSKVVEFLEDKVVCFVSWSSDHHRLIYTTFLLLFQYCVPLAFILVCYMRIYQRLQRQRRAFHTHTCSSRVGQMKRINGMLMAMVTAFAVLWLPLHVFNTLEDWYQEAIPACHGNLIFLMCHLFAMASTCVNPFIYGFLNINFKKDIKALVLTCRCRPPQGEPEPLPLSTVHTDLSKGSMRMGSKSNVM
# assay.procedure: competition with rat [125I]PP on the rat Y4/PP1 clone
# protocol.conditions: remark: other sources report otherwise
Ends that are not written are not given here.
metric: IC50

PAEDLARYYSALRHYINLITRQRY (ends and bridges not checked) [p(13-36)NPY, P01304] ... > 1000 nM
